target.system: SARS-COV-2 RBD extracellular domain expressed with a C-terminal mouse IgG2a (SARS-COV-2 RBD-mFc) (SARS-CoV-2)
protocol: SPR, captured mAb, RBD-mFc in solution, 37 C
Catalogue of pKd values
Quick note: pKd means taking -log10 of the concentration in moles per liter.

mAb10986 (antibody, V domains shown) VH: EVQLVESGGGLVQPGGSLRLSCAASEFTVSSNYMSWVRQAPGKGLEWVSVIYSGGSTFYADSVKGRFTISRDNSKNTLYLQMNSLRAEDTAVYYCARALPYGDLHFDYWGQGTLVTVSS VL: QSVLTQPPSVSGAPGQRVTISCTGSSSNIGTGYDVHWYQQLPGTAPKLLIYGNTNRPSGVPDRFSGSKSGTSASLAITGLQAEDEADYYCQSYDSSLSDSYVFGTGTKVTVLG ... 10.90

## Input What does the data say about its pKd? Entry: mAb11008 (antibody, V domains shown) VH: EVQLVESGGGLVQPGGSLRLSCAASGFTVSSNYMTWVRQAPGKGLEWVSVIYSGGSTFYADSVKGRFTISRHNSENTLYLQMNSLRAEDTAVYYCARDLAAAGTDYWGQGALVTVSS VL: DIQLTQSPSFLSASVGDRVTITCWASQGISSYLAWYQQKPGKAPKLLIYAASTLQSGVPSRFSGSGSGTEFTLTISSLQPDDFATYYCQHLNSYLYTFGQGTKLEIKR
## Output 9.06

## Input Cool, now mAb10938 (antibody, V domains shown) VH: EVQLVESGGGLVQPGGSLRLSCAVSGFTVSSNYMSWVRQAPGKGLEWVSLIYSGGSTFYADSVKGRFTISRHNSKNTLYLQMNSLRAEDTAVYYCAREGGYSYDYNYWGQGTLVTVSS VL: DIQMTQSPSSLSASVGDRVTITCQASQDIRNYLNWYQQKPGKAPKLLIYDASNLETGVPSRFSGIGSGTDFTFTISSLQPEDIATYYCQQYDNLPITFGQGTRLEIKR
## Output 9.76

## Input What about mAb10985 (antibody, V domains shown) VH: EVQLVESGGGLVQPGRSLRLSCAASGFTFDDYAMHWVRQAPGKGLEWVSGISWNRGSIGYADSVKGRFTISRDNAKNSLYLQMSSLRAEDTALYYCAKDGERWDSVVVPSARNGMDVWGQGTTVTVSS VL: QSVLTQPPSVSGAPGQRVTISCTGSSSNIGAGYDVHWYQQLPGTAPKLLIYGNSNRPSGVPDRFSGSKSGTSASLAITGLQAEDEADYYCQSYDSSLSGSYVFGTGTKVTVLG ?
## Output 10.40
